All values here come from paper PMC10568961.

Assay: MTS cell viability assay, MRC-5 cells
Format: cell-based, human
Settings: human, MRC-5 lung fibroblast cells
readout.type: viability at 24 h, 100 μg/mL (%)
Write the answer as a number in %, unit excluded.

In: Can you share its viability at 24 h, 100 μg/mL? I mean this compound: COc1ccc(-c2cc(=O)c3c(O)cc(O[C@@H]4O[C@H](CO[C@@H]5O[C@@H](C)[C@H](O)[C@@H](O)[C@H]5O)[C@@H](O)[C@H](O)[C@H]4O)cc3o2)cc1O
Out: 54.7

* * *

Test: MTS cell viability assay, MRC-5 cells
Format: cell-based, human
Conditions: human, MRC-5 lung fibroblast cells
readout.type: viability at 72 h, 100 μg/mL (%)
Write the answer as a number in %, unit excluded.

In: Can you share its viability at 72 h, 100 μg/mL? I mean this compound: COc1ccc(-c2cc(=O)c3c(O)cc(O[C@@H]4O[C@H](CO[C@@H]5O[C@@H](C)[C@H](O)[C@@H](O)[C@H]5O)[C@@H](O)[C@H](O)[C@H]4O)cc3o2)cc1O [Diosmin, diosmin]
Out: 71

* * *

Experiment: MTS cell viability assay, MRC-5 cells
Assay type: cell-based, human
Conditions: human, MRC-5 lung fibroblast cells
readout.type: viability at 48 h, 50 μg/mL (%)
Write the answer as a number in %, unit excluded.

In: Can you share its viability at 48 h, 50 μg/mL? I mean this compound: COc1ccc(-c2cc(=O)c3c(O)cc(O[C@@H]4O[C@H](CO[C@@H]5O[C@@H](C)[C@H](O)[C@@H](O)[C@H]5O)[C@@H](O)[C@H](O)[C@H]4O)cc3o2)cc1O [Diosmin, diosmin]
Out: 78

* * *

Test: MTS cell viability assay, MRC-5 cells
Format: cell-based, human
Settings: human, MRC-5 lung fibroblast cells
readout.type: viability at 48 h, 150 μg/mL (%)
Write the answer as a number in %, unit excluded.

In: Can you share its viability at 48 h, 150 μg/mL? I mean this compound: COc1ccc(-c2cc(=O)c3c(O)cc(O[C@@H]4O[C@H](CO[C@@H]5O[C@@H](C)[C@H](O)[C@@H](O)[C@H]5O)[C@@H](O)[C@H](O)[C@H]4O)cc3o2)cc1O
Out: 47.5

* * *

Assay: MTS cell viability assay, MRC-5 cells
Assay type: cell-based, human
Details: human, MRC-5 lung fibroblast cells
readout.type: viability at 24 h, 150 μg/mL (%)
Write the answer as a number in %, unit excluded.

In: Can you share its viability at 24 h, 150 μg/mL? I mean this compound: COc1ccc(-c2cc(=O)c3c(O)cc(O[C@@H]4O[C@H](CO[C@@H]5O[C@@H](C)[C@H](O)[C@@H](O)[C@H]5O)[C@@H](O)[C@H](O)[C@H]4O)cc3o2)cc1O
Out: 44.9

* * *

Assay: MTS cell viability assay, MRC-5 cells
Type: cell-based, human
Conditions: human, MRC-5 lung fibroblast cells
readout.type: viability at 72 h, 150 μg/mL (%)
Write the answer as a number in %, unit excluded.

In: Can you share its viability at 72 h, 150 μg/mL? I mean this molecule: COc1ccc(-c2cc(=O)c3c(O)cc(O[C@@H]4O[C@H](CO[C@@H]5O[C@@H](C)[C@H](O)[C@@H](O)[C@H]5O)[C@@H](O)[C@H](O)[C@H]4O)cc3o2)cc1O [Diosmin, diosmin]
Out: 49.9
